Test system: T-47D breast cancer cells
procedure_details: Cell viability (MTS) assay in T-47D cells
Format: cell-based, human
setup_conditions: Homo sapiens, T47D, 72 h; cell proliferation after 3 days, MTS
Measured IC50 accompanies every entry in the list below.
endpoint: IC50 (µM)

>>> print(df.to_string())
                                test_smiles                measured_on  units_text  numeric_readout
0  C[C@]12CC[C@@H]3c4ccc(Oc5cccc(C(N)=O)c5)cc4CC[C@H]3[C@@H]1C[C@@H](CCCBr)[C@@H]2O  T-47D breast cancer cells          µM               14
1  C[C@]12CC[C@@H]3c4ccc(Oc5cccc(C(N)=O)c5)cc4CC[C@H]3[C@@H]1CCC2=O  T-47D breast cancer cells          µM               49
2  C[C@]12CC[C@@H]3c4ccc(Oc5cccc(C(N)=O)c5)cc4CC[C@H]3[C@@H]1CC[C@@H]2O  T-47D breast cancer cells          µM               37

Values were extracted from paper PMC9862175.
